target: Prostaglandin D2 receptor 2 (Homo sapiens); test: Binding affinity to human prostaglandin D2 receptor by cell based radioligand displacement assay
Sequence (Q9Y5Y4 whole entry): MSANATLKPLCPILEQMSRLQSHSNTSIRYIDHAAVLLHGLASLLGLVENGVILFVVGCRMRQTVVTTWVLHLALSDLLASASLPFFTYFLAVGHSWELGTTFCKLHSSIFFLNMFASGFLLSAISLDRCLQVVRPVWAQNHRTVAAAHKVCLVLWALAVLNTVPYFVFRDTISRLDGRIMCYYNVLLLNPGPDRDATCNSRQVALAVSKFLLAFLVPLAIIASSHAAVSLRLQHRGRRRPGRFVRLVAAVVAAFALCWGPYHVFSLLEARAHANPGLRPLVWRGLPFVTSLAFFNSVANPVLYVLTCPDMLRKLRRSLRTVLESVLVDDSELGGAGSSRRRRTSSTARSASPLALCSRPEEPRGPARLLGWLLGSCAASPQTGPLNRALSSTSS
pKi: −log10 of the molar value.
Assign class by pKi: not lower than 6 means true (1); lower than 6 means false (0).

COMPOUND	EXPERIMENTAL_SYSTEM	CAT
CC(C)CCN1C(c2cn(CC(=O)O)c3ccccc23)c2ccccc2S1(=O)=O (racemic)	Prostaglandin D2 receptor 2 (Homo sapiens)	false (0)
CN1C(c2cn(CC(=O)O)c3ccccc23)c2ccccc2S1(=O)=O (racemic)	Prostaglandin D2 receptor 2 (Homo sapiens)	false (0)
N#Cc1ccc2c(c1)c(C1NS(=O)(=O)c3ccccc31)cn2CC(=O)O (racemic)	Prostaglandin D2 receptor 2 (Homo sapiens)	false (0)
O=C(O)Cn1cc(C2NS(=O)(=O)c3ccccc32)c2cc(Cl)ccc21 (racemic)	Prostaglandin D2 receptor 2 (Homo sapiens)	false (0)
Cc1noc(C)c1CN1C(c2cn(CC(=O)O)c3ccccc23)c2ccccc2S1(=O)=O (racemic)	Prostaglandin D2 receptor 2 (Homo sapiens)	true (1)

The measured values listed here are drawn from ChEMBL document CHEMBL1155509.
